Biological target: Alkaline phosphatase (Mesocricetus auratus)
Construct: the supernatant was used as the enzyme source; from tissue; host or cells: whole hamster flank organs, homogenized, 12,000×g supernatant
Sequence (A0A1U7QBN2 18-524): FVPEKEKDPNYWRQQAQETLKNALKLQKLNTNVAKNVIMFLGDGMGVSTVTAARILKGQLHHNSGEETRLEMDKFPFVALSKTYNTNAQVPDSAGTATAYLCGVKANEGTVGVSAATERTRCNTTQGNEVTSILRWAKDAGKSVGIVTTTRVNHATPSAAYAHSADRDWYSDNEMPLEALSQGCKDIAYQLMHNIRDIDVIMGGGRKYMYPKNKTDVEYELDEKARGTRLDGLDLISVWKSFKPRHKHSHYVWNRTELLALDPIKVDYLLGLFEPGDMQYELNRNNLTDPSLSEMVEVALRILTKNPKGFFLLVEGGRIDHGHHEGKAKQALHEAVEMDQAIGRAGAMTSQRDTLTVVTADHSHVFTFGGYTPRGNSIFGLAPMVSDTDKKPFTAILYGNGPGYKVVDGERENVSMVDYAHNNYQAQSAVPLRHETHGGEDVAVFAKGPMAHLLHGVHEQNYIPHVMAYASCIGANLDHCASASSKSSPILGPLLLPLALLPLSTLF
Assay: Alkaline phosphatase activity, hamster flank organ hair follicle enzyme
Format: biochemical
Details: Flank Organ; Table 3; 30 minutes at 37° C.
endpoint_name: pIC50
Scale explanation: pIC50 corresponds to minus log10 of a concentration expressed in moles per litre.

Ask: Suppose we examine the compound [Na+].[Na+].[Na+].[O]=[V]([O-])([O-])[O-] [Sodium Orthovanadate, sodium orthovanadate] ; what pIC50 value has been reported?
Reply: 4.40

Attribution: patent US6020006A
